Reference source for all entries: patent US12304890B2

# Tested on: Semen Euphorbiae Lathyridis
# protocol: Post-emergence test experiment, Semen Euphorbiae Lathyridis
# Type: in vivo
# condition: 504 h, 200 g a.i./ha, 3 weeks, weed resistant to cyhalofop-butyl, read-out: Semen Euphorbiae Lathyridis, activity level (growth inhibition rate)
Reported inhibition at 200 g/ha is given for each of the following compounds.

compound	inhibition at 200 g/ha
C[C@H](Oc1nc(Cl)c(Cl)c(N)c1Cl)C(=O)O [reference compound]	5 to 20%
C[C@@H](Oc1nc(F)c(Cl)c(N)c1Cl)C(=O)SCc1ccc(Cl)cc1	> 85%
C[C@H](Oc1nc(F)c(Cl)c(N)c1Cl)C(=O)O [reference compound]	5 to 20%
CC(Oc1nc(F)c(Cl)c(N)c1Cl)C(=O)O (stereo not shown) [reference compound]	40 to 60%
CC(Oc1nc(Cl)c(Cl)c(N)c1Cl)C(=O)O (stereo not shown) [reference compound]	40 to 60%
CCOC(=O)[C@H](C)Oc1nc(F)c(Cl)c(N)c1Cl [reference compound]	5 to 20%
COC(=O)[C@H](C)Oc1ncc(Cl)c(N)c1Cl [reference compound]	< 5%
COC(=O)[C@@H](C)Oc1nc(F)c(Cl)c(N)c1Cl	> 85%
COC(=O)C(C)Oc1ncc(Cl)c(N)c1Cl (stereo not shown) [reference compound]	20 to 40%
CCOC(=O)C(C)Oc1nc(F)c(Cl)c(N)c1Cl (stereo not shown) [reference compound]	40 to 60%
